Where these numbers come from: patent US9221826B2

Target: GST-JAK3 enzyme (Homo sapiens, UniProt P52333)
Sequence (P52333 1-1124): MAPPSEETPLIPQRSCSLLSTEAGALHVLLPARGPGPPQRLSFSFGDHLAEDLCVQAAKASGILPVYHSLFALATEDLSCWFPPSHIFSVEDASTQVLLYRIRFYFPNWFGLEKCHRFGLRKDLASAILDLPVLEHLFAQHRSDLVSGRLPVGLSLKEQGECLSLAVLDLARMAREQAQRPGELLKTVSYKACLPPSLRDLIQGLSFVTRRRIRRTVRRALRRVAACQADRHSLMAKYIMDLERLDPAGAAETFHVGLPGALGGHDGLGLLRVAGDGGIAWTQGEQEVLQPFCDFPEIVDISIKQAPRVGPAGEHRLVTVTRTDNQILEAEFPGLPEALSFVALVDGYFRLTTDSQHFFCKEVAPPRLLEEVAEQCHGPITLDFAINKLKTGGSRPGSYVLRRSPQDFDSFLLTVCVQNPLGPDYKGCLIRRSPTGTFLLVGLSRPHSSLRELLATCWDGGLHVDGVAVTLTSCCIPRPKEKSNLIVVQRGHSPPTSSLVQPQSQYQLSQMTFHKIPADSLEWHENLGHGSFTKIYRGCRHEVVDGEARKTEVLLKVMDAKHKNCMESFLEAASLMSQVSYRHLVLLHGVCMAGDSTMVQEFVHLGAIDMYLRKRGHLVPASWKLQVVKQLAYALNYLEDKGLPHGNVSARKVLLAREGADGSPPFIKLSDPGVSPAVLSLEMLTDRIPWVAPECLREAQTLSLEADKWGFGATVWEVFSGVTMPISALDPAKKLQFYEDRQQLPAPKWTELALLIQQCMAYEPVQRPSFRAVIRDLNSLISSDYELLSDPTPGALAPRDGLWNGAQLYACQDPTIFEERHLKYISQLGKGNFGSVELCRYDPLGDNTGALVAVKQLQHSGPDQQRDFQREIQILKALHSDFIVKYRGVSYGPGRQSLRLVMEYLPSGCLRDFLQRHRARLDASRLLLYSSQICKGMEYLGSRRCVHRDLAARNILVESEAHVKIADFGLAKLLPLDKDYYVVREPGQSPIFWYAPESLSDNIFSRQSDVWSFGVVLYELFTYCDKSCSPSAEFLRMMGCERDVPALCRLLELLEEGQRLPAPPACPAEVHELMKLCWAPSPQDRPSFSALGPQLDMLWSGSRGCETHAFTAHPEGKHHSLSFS
pIC50: −log10 of the molar value.
Criterion: pIC50 meeting or surpassing 8. Met: t. Not met: f.

[ask] API: above_or_equal(metric=pIC50, cutoff=8) for item C[C@@H](Nc1c(C(N)=O)cnn2cc(-c3ccc(F)cc3)cc12)C(C)(C)F
[reply] t

[ask] Does pIC50 meet or surpass 8 for C[C@@H](N)c1cccc(-c2cc3c(N[C@H](C)C(C)(C)F)c(C(N)=O)cnn3c2)c1 ?
[reply] t

[ask] Check the entry C[C@@H](Nc1c(C(N)=O)cnn2cc(N3CCCS3(=O)=O)cc12)C(C)(C)F : does pIC50 equal or exceed 8?
[reply] t

[ask] Hi, just wondering whether C[C@@H](Nc1c(C(N)=O)cnn2cc(-c3ccccc3)cc12)C(C)(C)C(N)=O shows pIC50 of 8 or higher.
[reply] t

[ask] Is it the case that C[C@@H](Nc1c(C(N)=O)cnn2cc(-c3ccc(N)nc3)cc12)C1CC1 has pIC50 reaching or exceeding 8?
[reply] t

[ask] Hi, just wondering whether C[C@@H](O)[C@@H](COP(=O)(O)O)Nc1c(C(N)=O)cnn2cc(-c3ccccc3)cc12 [Example 240, phosphate, disodium] shows pIC50 of 8 or higher.
[reply] f

[ask] Kindly determine if pIC50 recorded for C[C@@H](Nc1c(C(N)=O)cnn2cc(-n3ccccc3=O)cc12)C(C)(C)C is above or exactly 8.
[reply] f

[ask] Determine whether this molecule has pIC50 no lower than 8: CSc1nnc(-c2cc3c(N[C@H](C)C4CC4)c(C(N)=O)cnn3c2)o1
[reply] f

[ask] Quick check: does C[C@@H](O)[C@@H](CO)Nc1c(C(N)=O)cnn2cc(-c3ccccc3)cc12 have pIC50 greater than or equal to 8?
[reply] t

[ask] hey, is pIC50 for this one >= 8? CC(C)[C@H]1COC(=O)N1c1cc2c(N[C@H](C)C(C)(C)C)c(C(N)=O)cnn2c1
[reply] f

[ask] Reported pIC50 reaches at least 8 for CC[C@@H](c1nc(C(N)=O)co1)[C@@H](C)Nc1c(C(N)=O)cnn2cc(-c3ccc(OC)nc3)cc12 ?
[reply] t

[ask] Threshold query (pIC50 >= 8) on CC(Nc1c(C(N)=O)cnn2cc(-c3ccncc3)cc12)c1cc(F)ccc1F (racemic)
[reply] f
